All figures here come from ChEMBL document CHEMBL1909046.

Each entry below lists one item and its recorded Ki value.
- test.system: Alpha-2A adrenergic receptor (Homo sapiens); note: in other assays of this panel Not Active means under 50% inhibition at 10 µM
- Sequence (P08913 whole entry): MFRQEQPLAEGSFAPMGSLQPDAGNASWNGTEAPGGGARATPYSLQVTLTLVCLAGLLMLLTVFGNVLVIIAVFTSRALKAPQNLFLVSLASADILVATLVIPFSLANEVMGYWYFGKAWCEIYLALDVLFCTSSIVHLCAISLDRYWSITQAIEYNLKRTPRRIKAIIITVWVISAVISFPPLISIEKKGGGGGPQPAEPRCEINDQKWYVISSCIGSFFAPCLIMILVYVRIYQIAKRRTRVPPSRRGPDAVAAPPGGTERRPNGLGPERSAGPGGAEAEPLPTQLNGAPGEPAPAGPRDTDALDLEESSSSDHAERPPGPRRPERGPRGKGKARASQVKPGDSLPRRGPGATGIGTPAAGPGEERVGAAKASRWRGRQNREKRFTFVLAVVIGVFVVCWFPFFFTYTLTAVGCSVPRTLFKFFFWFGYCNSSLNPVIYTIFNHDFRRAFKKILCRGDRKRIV
- Type: cell membranes, Sf9, Membrane
- condition.summary: read-out: Ki
The reply should be a number in nM, with the unit left off.

[[record]]
compound = "C#C[C@]1(O)CC[C@H]2[C@@H]3CCC4=Cc5oncc5C[C@]4(C)[C@H]3CC[C@@]21C"
test_value = 6870

[[record]]
compound = "CC[C@@H](CO)NC(=O)[C@@H]1C=C2c3cccc4c3c(cn4C)C[C@H]2N(C)C1 [METHYSERGIDE]"
test_value = 611

[[record]]
compound = "C#CCN(C)[C@H](C)Cc1ccccc1"
test_value = 674


# input for lookup
Challenge: State, in one line, measured Ki of OCCN1CCN(CCCN2c3ccccc3Sc3ccc(C(F)(F)F)cc32)CC1
Response given: 80

###

- test.system: Melanocortin receptor 3 (Homo sapiens); note: in other assays of this panel Not Active means under 50% inhibition at 10 µM
- Sequence (P41968 whole entry): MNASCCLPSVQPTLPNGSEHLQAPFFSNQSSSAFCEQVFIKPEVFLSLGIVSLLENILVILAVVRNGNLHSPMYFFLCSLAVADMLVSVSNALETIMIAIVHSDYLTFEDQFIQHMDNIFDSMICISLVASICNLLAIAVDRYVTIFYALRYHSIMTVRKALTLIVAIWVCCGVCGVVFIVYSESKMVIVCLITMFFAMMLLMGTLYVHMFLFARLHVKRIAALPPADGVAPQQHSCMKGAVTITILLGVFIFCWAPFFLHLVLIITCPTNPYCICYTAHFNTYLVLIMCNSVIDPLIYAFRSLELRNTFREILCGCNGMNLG
- Assay type: cell membranes, Membrane
- condition.summary: hek293
readout.label: IC50

Example compounds with recorded IC50:
[[record]]
compound = "CCOC(=O)[C@H](CCc1ccccc1)N[C@@H](C)C(=O)N1Cc2ccccc2C[C@H]1C(=O)O"
test_value = "Not Active"

[[record]]
compound = "C/C=C\\c1ccc(O)c(OC)c1"
test_value = "Not Active"

[[record]]
compound = "OCCN1CCN(CCCN2c3ccccc3Sc3ccc(Cl)cc32)CC1"
test_value = "Not Active"

[[record]]
compound = "C[C@@H]1C[C@H]2[C@@H]3CCC4=CC(=O)C=C[C@]4(C)C3=CC[C@]2(C)[C@H]1C(=O)CN1CCN(c2cc(N3CCCC3)nc(N3CCCC3)n2)CC1"
test_value = "Not Active"

[[record]]
compound = "CC(C(=O)O)c1ccc(-c2ccccc2)c(F)c1 (configuration not stated)"
test_value = "Not Active"


Challenge: State, in one line, measured IC50 of C=C1/C(=C\C=C2/CCC[C@]3(C)[C@@H]([C@H](C)CCCC(C)C)CC[C@@H]23)C[C@@H](O)C[C@@H]1O
Response given: Not Active

Challenge: State, in one line, measured IC50 of CN[C@@H]1[C@H](O)[C@H](NC)[C@H]2O[C@@]3(O)C(=O)C[C@@H](C)O[C@H]3O[C@@H]2[C@H]1O
Response given: Not Active

###

- test.system: Leukotriene C4 synthase (Cavia porcellus, UniProt A6XA80);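 note: enzyme inhibition assay of leukotriene C4 synthase, using LTA4 as the substrate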; note: in other assays of this panel Not Active means under 50% inhibition at 10 µM
- Sequence (A6XA80 whole entry): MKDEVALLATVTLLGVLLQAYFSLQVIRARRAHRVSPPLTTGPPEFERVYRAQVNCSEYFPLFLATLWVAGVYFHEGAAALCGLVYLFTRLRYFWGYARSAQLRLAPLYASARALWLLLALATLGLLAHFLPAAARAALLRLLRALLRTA
- Assay type: tissue-based, Lung
readout.label: IC50

Example compounds with recorded IC50:
[[record]]
compound = "Nc1nc(Cl)nc2c1ncn2[C@H]1C[C@H](O)[C@@H](CO)O1 [CLADRIBINE]"
test_value = "Not Active"

[[record]]
compound = "O=C(O)C(Cl)(Cl)Cl [TRICHLOROACETIC ACID]"
test_value = "Not Active"

[[record]]
compound = "N=C(N)N/N=C/c1c(Cl)cccc1Cl [GUANABENZ]"
test_value = "Not Active"

[[record]]
compound = "CC[C@]1(O)CC[C@H]2[C@@H]3CCC4=CCCC[C@@H]4[C@H]3CC[C@@]21C"
test_value = "Not Active"

[[record]]
compound = "OCCN1CCN(CCCN2c3ccccc3Sc3ccc(C(F)(F)F)cc32)CC1 [FLUPHENAZINE]"
test_value = "Not Active"


Challenge: State, in one line, measured IC50 of O=P1(N(CCCl)CCCl)NCCCO1 (stereo not given) [CYCLOPHOSPHAMIDE ANHYDROUS]
Response given: Not Active

Challenge: State, in one line, measured IC50 of CC[C@H]1OC(=O)[C@H](C)[C@@H](O[C@H]2C[C@@](C)(OC)[C@@H](O)[C@H](C)O2)[C@H](C)[C@@H](O[C@@H]2O[C@H](C)C[C@H](N(C)C)[C@H]2O)[C@](C)(OC)C[C@@H](C)C(=O)[C@H](C)[C@@H](O)[C@]1(C)O [CLARITHROMYCIN]
Response given: Not Active

Challenge: State, in one line, measured IC50 of C=C(C)[C@H]1Cc2c(ccc3c2O[C@@H]2COc4cc(OC)c(OC)cc4[C@@H]2C3=O)O1 [ROTENONE]
Response given: Not Active

Challenge: State, in one line, measured IC50 of Cc1cccc(Nc2ccccc2C(=O)O)c1C [MEFENAMIC ACID]
Response given: Not Active

Challenge: State, in one line, measured IC50 of O=c1n(CCCN2CCN(c3cccc(Cl)c3)CC2)nc2ccccn12 [TRAZODONE]
Response given: Not Active

Challenge: State, in one line, measured IC50 of O=c1[nH]c2ccccc2n1CCCN1CCC(n2c(=O)[nH]c3cc(Cl)ccc32)CC1 [DOMPERIDONE]
Response given: Not Active

Challenge: State, in one line, measured IC50 of NC[C@@H]1O[C@H](O[C@H]2[C@@H](O)[C@H](O[C@@H]3[C@@H](O)[C@H](N)C[C@H](N)[C@H]3O[C@H]3O[C@H](CN)[C@@H](O)[C@H](O)[C@H]3N)O[C@@H]2CO)[C@H](N)[C@@H](O)[C@@H]1O [FRAMYCETIN]
Response given: Not Active

Challenge: State, in one line, measured IC50 of O=P(O)(O)C(O)(Cc1cccnc1)P(=O)(O)O [RISEDRONIC ACID]
Response given: Not Active

Challenge: State, in one line, measured IC50 of Clc1cc2c(cc1Cl)Oc1cc(Cl)c(Cl)cc1O2 [2,3,7,8-TETRACHLORODIBENZO-P-DIOXIN]
Response given: Not Active

Challenge: State, in one line, measured IC50 of CC(C(=O)O)c1ccc(-c2ccccc2)c(F)c1 (stereo not given) [FLURBIPROFEN]
Response given: Not Active

Challenge: State, in one line, measured IC50 of CC(C)(C)NC[C@H](O)COc1nsnc1N1CCOCC1 [TIMOLOL]
Response given: Not Active

Challenge: State, in one line, measured IC50 of CN1C(=O)CN=C(c2ccccc2)c2cc(Cl)ccc21 [DIAZEPAM]
Response given: Not Active

Challenge: State, in one line, measured IC50 of O=C(/C=C/c1ccc(O)c(O)c1)OCCc1ccccc1 [CAFFEIC ACID PHENETHYL ESTER]
Response given: Not Active

Challenge: State, in one line, measured IC50 of N[C@@H](Cc1ccc(F)cc1)C(=O)O
Response given: Not Active

Challenge: State, in one line, measured IC50 of COc1cc(CNC(=O)CCCC/C=C/C(C)C)ccc1O [CAPSAICIN]
Response given: Not Active

Challenge: State, in one line, measured IC50 of CC(C)C[C@H]1C(=O)N2CCC[C@H]2[C@]2(O)O[C@](NC(=O)[C@@H]3C=C4c5cccc6[nH]c(Br)c(c56)C[C@H]4N(C)C3)(C(C)C)C(=O)N12 [BROMOCRIPTINE]
Response given: Not Active

Challenge: State, in one line, measured IC50 of CC(=O)Nc1nnc(S(N)(=O)=O)s1 [ACETAZOLAMIDE]
Response given: Not Active

Challenge: State, in one line, measured IC50 of CCOC(=O)C1=C(C)NC(C)=C(C(=O)OC)C1c1cccc(Cl)c1Cl (stereo not given) [FELODIPINE]
Response given: Not Active

Challenge: State, in one line, measured IC50 of Cc1cccc(Nc2cc(Cl)nc(SCC(=O)O)n2)c1C [PIRINIXIC ACID]
Response given: Not Active

Challenge: State, in one line, measured IC50 of CN(C(=O)CCCOc1ccc2[nH]c(=O)ccc2c1)C1CCCCC1 [CILOSTAMIDE]
Response given: Not Active

Challenge: State, in one line, measured IC50 of CCOC(N)=O
Response given: Not Active

Challenge: State, in one line, measured IC50 of NC[C@H]1O[C@H](O[C@H]2[C@H](O)[C@@H](O[C@H]3O[C@H](CO)[C@@H](O)[C@H](N)[C@H]3O)[C@H](N)C[C@@H]2N)[C@H](N)C[C@@H]1O [TOBRAMYCIN]
Response given: Not Active

###

- experimental.details: DRUGMATRIX: GABAA, Flunitrazepam, Central radioligand binding (ligand: [3H] Flunitrazepam)
- Format: cell membranes, Rattus norvegicus, Wistar, Brain, Membrane
- condition.summary: Not Active = under 50% inhibition at 10 µM
readout.label: IC50

Example compounds with recorded IC50:
[[record]]
compound = "CC(=O)O[C@]1(C(C)=O)CC[C@H]2[C@@H]3C=C(Cl)C4=CC(=O)[C@@H]5C[C@@H]5[C@]4(C)[C@H]3CC[C@@]21C [CYPROTERONE ACETATE]"
test_value = "Not Active"

[[record]]
compound = "C[C@]12C/C(=C/O)C(=O)C[C@@H]1CC[C@@H]1[C@@H]2CC[C@@]2(C)[C@H]1CC[C@]2(C)O"
test_value = "Not Active"

[[record]]
compound = "Clc1cc2c(cc1Cl)Oc1cc(Cl)c(Cl)cc1O2"
test_value = "Not Active"

[[record]]
compound = "COc1cc(CNC(=O)CCCC/C=C/C(C)C)ccc1O"
test_value = "Not Active"

[[record]]
compound = "CC(C)(C)NC[C@H](O)COc1nsnc1N1CCOCC1"
test_value = "Not Active"

[[record]]
compound = "CC(=O)OCC(CCn1cnc2cnc(N)nc21)COC(C)=O"
test_value = "Not Active"


Challenge: State, in one line, measured IC50 of Nn1nnc2ccccc21
Response given: Not Active

Challenge: State, in one line, measured IC50 of O=P(O)(O)C(O)(Cc1cccnc1)P(=O)(O)O
Response given: Not Active
